Entry source: PubChem BioAssay (NCI)

Test system: SF-295 CNS
Experiment: NCI tumour cell line growth inhibition, 48 h
# GI50 annotations

smiles-notation	GI50
O=C(NOCC1CC1)c1ccc(F)c(F)c1Nc1ccc(I)cc1Cl	2.63 µM
CC[N+](CC)(CC)CCCn1c2c(c3ccccc3c1=O)C(=O)c1ccccc1-2	7.38 µM
CCOC(=O)Oc1c(OC)cc(C(=O)O[C@@H]2C[C@@H]3CN4CCc5c([nH]c6cc(OC)ccc56)[C@H]4C[C@@H]3[C@H](C(=O)OC)[C@H]2OC)cc1OC	10.2 µM
COc1cc(/C=C/C(=O)c2ccc(Cl)cc2)ccc1OS(=O)(=O)c1ccc(C)cc1	9.27 µM

* * *

Tested on: HOP-92 NSCLC
Test: NCI tumour cell line growth inhibition, 48 h
# TGI annotations
reported-endpoint: TGI (µM)

compound	system-under-test	measurement-qualifier	experimental-value
Cc1[nH]c(/C=C2\C(=O)Nc3ccc(F)cc32)c(C)c1C(=O)NC[C@H](O)CN1CCOCC1	HOP-92 NSCLC	=	6.84
N#CC12C3C4CC5C6C4C1C6C(O)(C53)N2Cc1ccccc1 (configuration not stated)	HOP-92 NSCLC	>	100
C=C(CN1CCc2ccccc2C1)c1ccc(C(=O)Nc2ccc(N)cc2)cc1	HOP-92 NSCLC	=	12.7
CC(C)C(N=Cc1ccccc1O)C(=O)O (configuration not stated)	HOP-92 NSCLC	>	100
c1ccc(N=C2c3ccccc3C3=NCCCN32)cc1	HOP-92 NSCLC	=	72.2
COc1cc2c(/C=C3/C(=O)Nc4ccccc43)c(Cl)n(Cc3ccccc3[N+](=O)[O-])c2cc1C	HOP-92 NSCLC	=	26.8
O=C1N=C(c2ccccc2)O/C1=C\c1ccccc1	HOP-92 NSCLC	>	100
CCOC(=O)n1cncc1CC(NC(=O)Cc1c(C(=O)C=C(C)C)[nH]c2ccccc12)C(=O)OC (configuration not stated)	HOP-92 NSCLC	=	26.4
CC1NC(/C(=C/c2ccccc2O)NC(=O)c2ccccc2)OC1=O (configuration not stated)	HOP-92 NSCLC	=	46.6
C[C@]12CC[C@@H]3c4ccc(O)cc4CC[C@H]3[C@@H]1CC[C@@H]2NS(=O)(=O)Cc1ccc(Cl)cc1	HOP-92 NSCLC	=	7.24
Fc1ccc(-c2ccc(-c3nnc(-c4cc(F)c(Cl)cc4Cl)o3)o2)cc1Cl	HOP-92 NSCLC	>	100
O=C1C=Cc2ccccc2/C1=C/c1[nH]c(=O)[nH]c1O	HOP-92 NSCLC	=	47.8
CN(C)CCO/N=C1/C=C2CC[C@H]3[C@@H]4CC[C@H](O)[C@@]4(C)CC[C@@H]3[C@@]2(C)CC1	HOP-92 NSCLC	=	23
CC(C)CCC[C@@H](C)C1CCC2[C@@H]3CCC4CC(CCC=C(c5cc(Cl)c(OC(=O)c6ccccc6)c(C(=O)O)c5)c5cc(Cl)c(OC(=O)c6ccccc6)c(C(=O)O)c5)CC[C@]4(C)C3CC[C@@]21C (some centres not stated)	HOP-92 NSCLC	=	73.3
CC(=O)N1c2ccccc2Sc2cc(C(O)(C(F)(F)F)C(F)(F)F)ccc21	HOP-92 NSCLC	>	10
O=C1c2ccccc2-c2c1c1ccccc1c(=O)n2CCNCCNCCn1c2c(c3ccccc3c1=O)C(=O)c1ccccc1-2	HOP-92 NSCLC	=	39.7
COc1cc2cc(C(=O)N3CC(CCl)c4ccc(NCCN)cc43)[nH]c2c(OC)c1OC (configuration not stated)	HOP-92 NSCLC	=	4
CC1NOC(=O)C1N=Nc1ccccc1Cl (configuration not stated)	HOP-92 NSCLC	=	54.6
CCOC(=O)C1C(=O)c2ccccc2CN1Cc1ccccc1 (configuration not stated)	HOP-92 NSCLC	>	100
O=C(NOCC1CC1)c1ccc(F)c(F)c1Nc1ccc(I)cc1Cl	HOP-92 NSCLC	=	1.18
O=S1(=O)C[C@@H](O)[C@H](O)CS1	HOP-92 NSCLC	>	100
C[Si](C)(C)OC1c2[nH]c3ccccc3c2CN2C(=O)CCC12 (configuration not stated)	HOP-92 NSCLC	>	100
CCN(CC)Cc1cc(Nc2c3ccccc3nc3c2[nH]c2ccccc23)ccc1O	HOP-92 NSCLC	=	3.46
COC(=O)C1=C(O)C(O)=C(C(=O)OC)C1	HOP-92 NSCLC	>	100
O=C(NC(=S)Nc1ccc(Cl)cc1)c1ccccc1	HOP-92 NSCLC	=	68.5
O=S(=O)(O)c1c(N=Nc2c(O)ccc3ccccc23)ccc2ccccc12	HOP-92 NSCLC	>	100
CNC(=O)c1n[nH][nH]c1=O	HOP-92 NSCLC	>	100
O=C1c2ccccc2-c2c1c1ccccc1c(=O)n2CCCN1CCOCC1	HOP-92 NSCLC	=	13
COc1ccc2[nH]c(Cl)c(/C=C3/C(=O)N(C)c4ccccc43)c2c1	HOP-92 NSCLC	>	100
O=C(Nc1ccc(Cl)cc1)c1cc2ccccc2cc1O	HOP-92 NSCLC	=	7.77
O=C(C(Br)Br)C(Br)C(Br)c1ccccc1 (configuration not stated)	HOP-92 NSCLC	=	19.8
CC(c1cccc2ccccc12)/[N+]([O-])=C/c1ccccc1 (configuration not stated)	HOP-92 NSCLC	>	100
CC1=C(OC2OC(CO)C(O)C(O)C2O)C(=O)C[C@H]2C1=CC[C@@H]1[C@@]2(C)C(=O)C[C@]2(C)[C@@H]([C@@](C)(O)C(=O)CCC(C)(C)O)[C@H](O)C[C@@]12C (some centres not stated)	HOP-92 NSCLC	>	100
O=C1CC2(CCC(O)(c3ccc(Cl)cc3)C(C(=O)c3ccc(Cl)cc3)C2)C(=O)c2ccccc2N1 (configuration not stated)	HOP-92 NSCLC	=	8.31
Nc1ccccc1C#C/C=C\C#Cc1ccc(Cl)cc1Cl	HOP-92 NSCLC	=	48.1
S=C(N/N=C/c1ccccn1)Nc1ccccn1	HOP-92 NSCLC	=	6.23
Cc1c2cc[nH]c(=O)c2cc2c(=O)c3cnccc3[nH]c12	HOP-92 NSCLC	>	100
CCOC(=O)CC1=CSC2=NCCN12	HOP-92 NSCLC	>	100
Nc1c(-c2nc3ccccc3[nH]2)sc(=S)n1-c1ccccc1	HOP-92 NSCLC	>	100
Cc1ccc(S(=O)(=O)NNC(=S)Nc2cccc3ccccc23)cc1	HOP-92 NSCLC	=	86
CN(C)Cc1ccc(C(=O)Nc2ccc3ncnc(Nc4ccc(Oc5cccc(F)c5)c(Cl)c4)c3c2)cc1	HOP-92 NSCLC	=	2.44
Cc1ccc2c(=O)c3cccc(CC(=O)O)c3oc2c1C	HOP-92 NSCLC	>	100
